Where do these numbers come from? They come from PubChem BioAssay AID2060325.

# Tested on: SK-OV-3 multi-cell spheroids, viability
# test-summary: Anticancer human tumor SK-OV-3 cell line growth inhibition [IpAb];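 note: viability read after seven days of drug exposure; percent of DMSO vehicle control luminescence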
# protocol-conditions: second compound 0.01 µM; first compound 0.316 µM; active compounds read low
observation-type: viability, T/C (%)
Give the number; % is assumed, so skip it.

Reported viability, T/C, compound C=CC(=O)N1CCN(c2nc(=O)n(-c3c(C)ccnc3C(C)C)c3nc(-c4c(O)cccc4F)c(F)cc23)C(C)C1 (stereo not drawn) + CCN1CCN(Cc2ccc(Nc3ncc(F)c(-c4cc(F)c5nc(C)n(C(C)C)c5c4)n3)nc2)CC1 : ____
93.8

Reported viability, T/C, compound COc1c(OCCCN2CCOCC2)ccc2c3n(c(=NC(=O)c4cnc(N)nc4)nc12)CCN3 + CCN1CCN(Cc2ccc(Nc3ncc(F)c(-c4cc(F)c5nc(C)n(C(C)C)c5c4)n3)nc2)CC1 : ____
5.33

Reported viability, T/C, compound Cn1nccc1Nc1nccc(-c2ccn(C(CO)c3ccc(Cl)c(F)c3)c(=O)c2)n1 (stereo not drawn) + CCN1CCN(Cc2ccc(Nc3ncc(F)c(-c4cc(F)c5nc(C)n(C(C)C)c5c4)n3)nc2)CC1 : ____
105

Reported viability, T/C, compound CCCS(=O)(=O)Nc1ccc(F)c(C(=O)c2c[nH]c3ncc(-c4ccc(Cl)cc4)cc23)c1F + CCN1CCN(Cc2ccc(Nc3ncc(F)c(-c4cc(F)c5nc(C)n(C(C)C)c5c4)n3)nc2)CC1 : ____
89.1

Reported viability, T/C, compound C=CCn1c(=O)c2cnc(Nc3ccc(N4CCN(C)CC4)cc3)nc2n1-c1cccc(C(C)(C)O)n1 + CCN1CCN(Cc2ccc(Nc3ncc(F)c(-c4cc(F)c5nc(C)n(C(C)C)c5c4)n3)nc2)CC1 : ____
13.1

Reported viability, T/C, compound Cc1nc(NC(=O)N2CCCC2C(N)=O)sc1-c1ccnc(C(C)(C)C(F)(F)F)c1 (stereo not drawn) + CCN1CCN(Cc2ccc(Nc3ncc(F)c(-c4cc(F)c5nc(C)n(C(C)C)c5c4)n3)nc2)CC1 : ____
43.1

Reported viability, T/C, compound Cn1ncc(Cl)c1-c1cc(C(=O)NC(CN)Cc2cccc(F)c2)sc1Cl (stereo not drawn) + CCN1CCN(Cc2ccc(Nc3ncc(F)c(-c4cc(F)c5nc(C)n(C(C)C)c5c4)n3)nc2)CC1 : ____
22.1

Reported viability, T/C, compound CC1(C)CCC(CN2CCN(c3ccc(C(=O)NS(=O)(=O)c4ccc(NCC5CCOCC5)c([N+](=O)[O-])c4)c(Oc4cnc5[nH]ccc5c4)c3)CC2)=C(c2ccc(Cl)cc2)C1 + CCN1CCN(Cc2ccc(Nc3ncc(F)c(-c4cc(F)c5nc(C)n(C(C)C)c5c4)n3)nc2)CC1 : ____
90

---

# System: SK-OV-3 multi-cell spheroids, viability
# test-summary: Anticancer human tumor SK-OV-3 cell line growth inhibition [IpAb];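 note: viability read after seven days of drug exposure; percent of DMSO vehicle control luminescence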
# protocol-conditions: second compound 0.01 µM; first compound 1 µM; active compounds read low
# Description: Combinatorial screen of targeted agents with ipatasertib and abemaciclib in multi-cell type tumor spheroids […] Compounds. […] If the clinical Cmax for an agent had not been determined, the highest concentration tested was 10 microM. NCI60 Cell Culture. […] The optimal seeding densities for each of the cell lines at each time point assessed were determined prior to performing the concentration response studies. […]
For each of the compounds below, state its viability, T/C.
Give the number; % is assumed, so skip it.

Reported viability, T/C, compound CCCS(=O)(=O)Nc1ccc(F)c(C(=O)c2c[nH]c3ncc(-c4ccc(Cl)cc4)cc23)c1F + CCN1CCN(Cc2ccc(Nc3ncc(F)c(-c4cc(F)c5nc(C)n(C(C)C)c5c4)n3)nc2)CC1 : ____
85.5

Reported viability, T/C, compound Cn1ncc(Cl)c1-c1cc(C(=O)NC(CN)Cc2cccc(F)c2)sc1Cl (stereo not given) + CCN1CCN(Cc2ccc(Nc3ncc(F)c(-c4cc(F)c5nc(C)n(C(C)C)c5c4)n3)nc2)CC1 : ____
14.1

Reported viability, T/C, compound COc1c(OCCCN2CCOCC2)ccc2c3n(c(=NC(=O)c4cnc(N)nc4)nc12)CCN3 + CCN1CCN(Cc2ccc(Nc3ncc(F)c(-c4cc(F)c5nc(C)n(C(C)C)c5c4)n3)nc2)CC1 : ____
3.04

Reported viability, T/C, compound Cn1nccc1Nc1nccc(-c2ccn(C(CO)c3ccc(Cl)c(F)c3)c(=O)c2)n1 (stereo not given) + CCN1CCN(Cc2ccc(Nc3ncc(F)c(-c4cc(F)c5nc(C)n(C(C)C)c5c4)n3)nc2)CC1 : ____
118

Reported viability, T/C, compound Cc1nc(NC(=O)N2CCCC2C(N)=O)sc1-c1ccnc(C(C)(C)C(F)(F)F)c1 (stereo not given) + CCN1CCN(Cc2ccc(Nc3ncc(F)c(-c4cc(F)c5nc(C)n(C(C)C)c5c4)n3)nc2)CC1 : ____
20.7
